assayProtocol: % stability in human plasma after 10 minutes.
Type: ADME, organism-based
conditions: plasma, read-out: Stability
measure: remaining at 10 min (%)

- CC1(C)O[C@@H]2CC3C4C[C@H](F)C5=CC(=O)C=C[C@]5(C)[C@@]4(F)[C@@H](O)C[C@]3(C)[C@]2(S[C@@H]2CCOC2=O)O1 (some centres undefined): 45
- CC1(C)O[C@@H]2CC3C4C[C@H](F)C5=CC(=O)C=C[C@]5(C)[C@@]4(F)[C@@H](O)C[C@]3(C)[C@]2(SC2CCOC2=O)O1 (some centres undefined): 24
- CCC[C@@H]1O[C@@H]2CC3C4C[C@H](F)C5=CC(=O)C=C[C@]5(C)[C@@]4(F)[C@@H](O)C[C@]3(C)[C@]2(SC2CCOC2=O)O1 (some centres undefined): 0
- CCC[C@@H]1O[C@@H]2CC3C4C[C@H](F)C5=CC(=O)C=C[C@]5(C)[C@@]4(F)[C@@H](O)C[C@]3(C)[C@]2(S[C@@H]2CCOC2=O)O1 (some centres undefined): 19
